- System: CAKI-1 renal
- Assay method text: NCI tumour cell line growth inhibition, 48 h
Experimental readout: GI50

// query Quote GI50 with test system CAKI-1 renal for Oc1ccc(-c2nnc3sc(-c4ccc(F)cc4)nn23)cc1
// result 48.8 µM

// query Quote GI50 with test system CAKI-1 renal for CNC(=O)n1ccc2cc(Oc3ccnc(NC(=O)c4ccc(C5CCN(CCO)CC5)cc4)c3)c(OCCOC)cc21
// result 3.08 µM

// query Quote GI50 with test system CAKI-1 renal for COc1cccc(/C=C/C(=O)c2cccc(Nc3nc(Nc4ccccc4)nc(Nc4ccccc4)n3)c2)c1
// result > 22.4 µM

// query Quote GI50 with test system CAKI-1 renal for Cc1ccc(/C=C2\CN(C(=O)OC(C)(C)C)C/C(=C\c3ccc(C)cc3)C2=O)cc1
// result 0.576 µM

// query Quote GI50 with test system CAKI-1 renal for C=CCc1c2c(c(OC)c3ccoc13)C(=O)/C(=C/c1ccccc1OC)O2
// result 3.15 µM

// query Quote GI50 with test system CAKI-1 renal for CCCCN1CCN(c2ccc3nc(-c4ccc5nc(-c6ccc(C(F)(F)F)cc6)[nH]c5c4)[nH]c3c2)CC1
// result 1.38 µM

// query Quote GI50 with test system CAKI-1 renal for Cc1ccc2c(ccc3c[n+]4c5ccccc5ccc4n32)c1
// result 8.25 µM

// query Quote GI50 with test system CAKI-1 renal for COc1ccc2c(CCCC(c3ccccc3)c3ccccc3)c3[n+](cc2c1OC)CCc1cc2c(cc1-3)OCO2
// result 2.27 µM

// query Quote GI50 with test system CAKI-1 renal for COC(=O)/C=C/C=C(c1ccccc1)c1ccccc1
// result 3.05 µM

* * *

Consider the following molecules; for each one, report its TGI.
- Tested on: OVCAR-5 ovarian
- Assay method text: NCI tumour cell line growth inhibition, 48 h

// query Return TGI (reported value) for this molecule: CC(=O)NNc1nc(C)c(C(=O)NNC(=O)C(=O)Nc2ccccc2C#N)s1
// result > 100 µM

// query Return TGI (reported value) for this molecule: CCCCN1CCN(c2ccc3nc(-c4ccc5nc(-c6ccc(C(F)(F)F)cc6)[nH]c5c4)[nH]c3c2)CC1
// result 3.32 µM

// query Return TGI (reported value) for this molecule: O=c1c2ncn(C3CC(O)C(CO)O3)c2nnn1Cc1ccccc1[N+](=O)[O-] (stereo unspecified)
// result > 100 µM

// query Return TGI (reported value) for this molecule: C[n+]1c(-c2ccccc2)cc2/c(=C\c3ccc([N+](=O)[O-])cc3)c3ccccc3n21
// result 54.2 µM

// query Return TGI (reported value) for this molecule: CCCCCn1c(=N)n(CC(O)COc2cccc(C)c2)c2ccccc21 (stereo unspecified)
// result 25.2 µM

// query Return TGI (reported value) for this molecule: CC1=NCCc2c1[nH]c1cc(O)ccc21
// result > 100 µM

// query Return TGI (reported value) for this molecule: NC(=S)N/N=C(/CC(=O)c1ccccc1)C(=O)Nc1ccc(Cl)c(Cl)c1
// result > 100 µM

// query Return TGI (reported value) for this molecule: Nc1ccn(Cc2ccc(C34CC5CC(CC(C5)C3)C4)c(O)c2)c(=O)n1
// result > 100 µM

// query Return TGI (reported value) for this molecule: O=C1NCCCc2nonc21
// result > 100 µM

// query Return TGI (reported value) for this molecule: CCN1C(=O)N(CC)C2C1NN=c1s/c(=C\c3cccnc3)c(=O)n12 (stereo unspecified)
// result > 100 µM

// query Return TGI (reported value) for this molecule: N#C/C(=C1\OC(=O)C(c2ccc(Br)cc2)=C1O)c1ccc(Br)cc1
// result 33.2 µM

* * *

- System: 786-0 renal
- Assay method text: NCI tumour cell line growth inhibition, 48 h; in the data active = GI50 below about 0.43 µM; inactive = the rest
Lab note: assign the record to one of Yes = active, No = inactive

// query Recorded call for CCN(CC)c1ccc(C(=C2C=CC(=[N+](CC)Cc3cccc(S(=O)(=O)O)c3)C=C2)c2ccc(N(CC)Cc3cccc(S(=O)(=O)O)c3)cc2)cc1 ?
// result No

// query Recorded call for COc1ccc2nc3cc([N+](=O)[O-])ccc3c(NCCCCCN(C)C)c2c1 ?
// result Yes

// query Recorded call for Cc1ccc2c(ccc3c[n+]4c5ccccc5ccc4n32)c1 ?
// result No

// query Recorded call for CN(CCCN)CCCNc1nc2ccccc2c2[nH]c3ccccc3c12 ?
// result Yes

// query Recorded call for Nc1c(C(=O)Nc2cccc([N+](=O)[O-])c2)sc2nc3c(cc12)C(O)CCC3 (centres undefined) ?
// result No

// query Recorded call for COc1ccc(N2C(C)=C(C#N)C34C(=O)N(c5ccccc5)C(=O)C3=C(O)C=CC24O)cc1 (centres undefined) ?
// result No

// query Recorded call for COC(=O)[C@@H](C)C[C@H](Cc1ccccc1)NC(=O)c1nc([C@@H](C[C@H](C(C)C)N(C)C(=O)[C@@H](NC(=O)[C@H]2CCCCN2C)C(C)C)OC(C)=O)sc1C ?
// result Yes

// query Recorded call for CCN(Cc1ccc(F)c(F)c1)c1ccc(CO)c(Cl)c1 ?
// result No

// query Recorded call for CC1SC(c2c(Cl)cccc2Cl)N(NC(=O)c2[nH]c3ccc(F)cc3c2-c2ccccc2)C1=O (centres undefined) ?
// result No

// query Recorded call for CCN(CC)S(=O)(=O)c1ccc(OC)c(Nc2ncc(-c3ccccc3)o2)c1 ?
// result No

// query Recorded call for C=CCc1c2c(c(OC)c3ccoc13)C(=O)/C(=C/c1ccccc1OC)O2 ?
// result No

// query Recorded call for Nc1ccn(Cc2ccc(C34CC5CC(CC(C5)C3)C4)c(O)c2)c(=O)n1 ?
// result No

// query Recorded call for C=C1C(=O)O[C@H]2[C@H]1CC/C(COC(=O)NCc1ccccc1OC)=C\CC[C@@]1(C)O[C@@H]21 ?
// result No

// query Recorded call for CCCCCn1c(=N)n(CC(O)COc2cccc(C)c2)c2ccccc21 (centres undefined) ?
// result No

* * *

- Test system: HOP-62 NSCLC
- Assay method text: NCI tumour cell line growth inhibition, 48 h; in the data active = GI50 below about 0.43 µM; inactive = the rest
Lab note: assign the record to one of active, inactive

// query Recorded call for C[C@@H](C(=O)Nc1ccc(Cl)cc1)C1CCC(c2ccnc3ccc(F)cc23)CC1 (stereo partly specified) ?
// result inactive

// query Recorded call for CC/C=C\C=C/C(=O)N/C=C/CC1Cc2cccc(O)c2C(=O)O1 (stereo unspecified) ?
// result inactive

// query Recorded call for CCCC[C@H](NC(=O)[C@H]1CCCN1C)C(=O)N(C)[C@H](C[C@@H](OC(C)=O)c1nc(C(=O)N[C@@H](Cc2ccccc2)C[C@H](C)C(=O)OCC)cs1)C(C)C ?
// result active

// query Recorded call for CCN1C(=O)N(CC)C2C1NN=c1s/c(=C\c3cccnc3)c(=O)n12 (stereo unspecified) ?
// result inactive

// query Recorded call for ClCCn1c(CCl)nc2ccc(Cl)cc21 ?
// result inactive

// query Recorded call for CC(C)(C)C#CC1=C(Br)C(=O)OC1 ?
// result inactive

* * *

- System: MDA-MB-231 breast
- Assay method text: NCI tumour cell line growth inhibition, 48 h; in the data active = GI50 below about 0.43 µM; inactive = the rest
Lab note: assign the record to one of active, inactive

// query Recorded call for C=C1C(=O)O[C@H]2[C@H]1CC/C(COC(=O)NCc1ccccc1OC)=C\CC[C@@]1(C)O[C@@H]21 ?
// result inactive

// query Recorded call for Nc1ccn(Cc2ccc(C34CC5CC(CC(C5)C3)C4)c(O)c2)c(=O)n1 ?
// result inactive

// query Recorded call for O=C1c2ccccc2-c2c1c1ccccc1c(=O)n2CCCNCCCNCCCn1c2c(c3ccccc3c1=O)C(=O)c1ccccc1-2 ?
// result active

// query Recorded call for Nc1cc2cccc[n+]2c2cc(Cl)ccc12 ?
// result inactive

// query Recorded call for Cc1ccc2c(ccc3c[n+]4c5ccccc5ccc4n32)c1 ?
// result inactive

// query Recorded call for CC1SC(c2c(Cl)cccc2Cl)N(NC(=O)c2[nH]c3ccc(F)cc3c2-c2ccccc2)C1=O (stereo not drawn) ?
// result inactive

// query Recorded call for O=C1OC(=O)C(c2c[nH]c3ccccc23)=C1c1c[nH]c2ccccc12 ?
// result inactive

// query Recorded call for C=CCc1c2c(c(OC)c3ccoc13)C(=O)/C(=C/c1ccccc1OC)O2 ?
// result inactive

// query Recorded call for Cc1c(C(=O)/C=C/c2csc3ccccc23)[n+](=O)c2ccccc2n1[O-] ?
// result inactive

// query Recorded call for CCN(Cc1ccc(F)c(F)c1)c1ccc(CO)c(Cl)c1 ?
// result inactive

// query Recorded call for CC(C)NC[C@@H](C(=O)N1CCN(c2ncnc3c2[C@H](C)C[C@H]3O)CC1)c1ccc(Cl)cc1 ?
// result inactive

// query Recorded call for CCCCN1CCN(c2ccc3nc(-c4ccc5nc(-c6ccc(C(F)(F)F)cc6)[nH]c5c4)[nH]c3c2)CC1 ?
// result inactive

// query Recorded call for N#Cc1cnc2cc(OC[C@H](O)CO)c(NC(=O)CC3CSSC3)cc2c1Nc1ccc(OCc2cccc(F)c2)c(Cl)c1 ?
// result active

Values were extracted from PubChem BioAssay (NCI).
